B1: library; numbered along this chain (parent)
chain: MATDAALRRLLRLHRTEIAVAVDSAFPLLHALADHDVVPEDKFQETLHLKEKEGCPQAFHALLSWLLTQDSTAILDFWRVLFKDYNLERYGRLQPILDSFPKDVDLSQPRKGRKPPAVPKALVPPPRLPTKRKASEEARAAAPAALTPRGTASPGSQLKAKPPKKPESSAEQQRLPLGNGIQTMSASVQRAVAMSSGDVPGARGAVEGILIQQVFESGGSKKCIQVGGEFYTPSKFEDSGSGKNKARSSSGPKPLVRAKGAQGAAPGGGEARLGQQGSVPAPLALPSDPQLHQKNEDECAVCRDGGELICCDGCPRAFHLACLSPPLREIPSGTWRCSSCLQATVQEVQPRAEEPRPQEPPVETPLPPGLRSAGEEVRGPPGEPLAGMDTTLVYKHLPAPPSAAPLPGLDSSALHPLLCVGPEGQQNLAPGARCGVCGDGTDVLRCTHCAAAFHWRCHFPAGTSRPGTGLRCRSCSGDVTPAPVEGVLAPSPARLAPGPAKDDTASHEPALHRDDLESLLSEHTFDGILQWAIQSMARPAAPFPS

variants of: B1; assay: AIRE transcriptional activation functional score (insulin promoter-GFP; nonsense median 0, synonymous median 1) (normalised score); higher = higher AIRE activity (more reporter activation); conditions: with insulin promoter-GFP reporter in HEK293
The entries below come with measured AIRE transcriptional activation functional score values attached.
measure_name: AIRE transcriptional activation functional score

mutations	recorded_measurement
R110D	2.5
S535N	0.164
E347I	1.15
D288S	1.24
V22I	1.57
G178P	0.532
P497N	1.05
W531L	0.702
F453A	0.274
E347C	1.15
P125N	0.92
P407Q	1.2
S71M	0.472
P381L	1.13
A450K	-0.531
L516K	0.259
S250T	0.687
Q108T	1.35
G240N	1.96
V443C	1.15
V199H	0.599
E298P	0.696
D103V	0.319
V279I	0.721
Q182L	0.0585
S185D	0.436
S250E	0.4
L62A	-0.0777
N427W	1.3
A152T	1.32
P101W	-5.52
V393E	0.991
M184G	1.01
P95R	0.995
G477R	0.787
D76A	0.43
P380T	1.45
P355L	1.11
E508W	0.888
G369F	1.46
R494A	0.321
L28T	0.6
G263S	1.23
K243Q	0.804
E296R	0.658
L273N	0.862
G218T	1.11
S372W	1.62
V436A	0.0856
D103F	0.826
G178M	1.65
A532K	-0.0221
G197P	1.23
W455D	0.9
E307Y	0.242
V123Y	1.43
A482Y	1.42
